meta.source: ChEMBL document CHEMBL5528002

Biological target: Bifunctional epoxide hydrolase 2 (Homo sapiens) (UniProt P34913)
Sequence (P34913 whole entry): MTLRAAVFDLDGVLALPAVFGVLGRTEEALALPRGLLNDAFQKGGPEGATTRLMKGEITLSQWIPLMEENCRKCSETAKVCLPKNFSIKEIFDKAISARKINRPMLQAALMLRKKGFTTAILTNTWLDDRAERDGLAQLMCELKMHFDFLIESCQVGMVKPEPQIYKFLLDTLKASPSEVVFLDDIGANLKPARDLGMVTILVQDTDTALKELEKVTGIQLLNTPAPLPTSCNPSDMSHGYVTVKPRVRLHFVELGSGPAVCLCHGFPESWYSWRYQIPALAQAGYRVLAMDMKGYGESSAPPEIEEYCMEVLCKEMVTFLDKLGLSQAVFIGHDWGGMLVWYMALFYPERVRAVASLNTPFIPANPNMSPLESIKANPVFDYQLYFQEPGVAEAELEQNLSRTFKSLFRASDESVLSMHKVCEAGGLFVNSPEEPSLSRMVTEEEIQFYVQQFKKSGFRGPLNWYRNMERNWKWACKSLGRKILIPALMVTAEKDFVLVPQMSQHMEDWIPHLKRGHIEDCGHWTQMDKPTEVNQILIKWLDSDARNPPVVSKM
Assay: Inhibition of human sEH assessed as enzyme remaining activity at 10 uM relative to control
Label key: satisfied means Activity under 90%; not satisfied means Activity of 90% or more.

Consider the following illustrative entries.
N=C(N)/N=C(/C=C/c1ccccc1)CC1OC(=O)c2ccccc21 (stereo not given)    not satisfied
O=C1C/C(=C/c2cccc(OCc3ccccc3)c2)C(=O)N1    not satisfied
CC(=O)c1cccc(NC(=O)Oc2ccc3c(C)cc(=O)oc3c2)c1    not satisfied
O=C1CCC(CCc2nc3ccccc3[nH]2)(c2ccccc2)C(=O)N1 (stereo not given)    not satisfied
O=C1C(=O)C(CCc2ccccc2)C(=O)/C1=C/c1ccccc1 (stereo not given)    not satisfied
COc1ccc(C2=C/C(=C/c3ccc(O)cc3O)C(=O)O2)cc1    satisfied
NNC(=O)CCc1ccc2ccc3ccccc3c2c1    not satisfied
O=C1c2ccccc2C(=O)N1CCc1nc(-c2ccccc2)c[nH]1    satisfied
NS(=O)(=O)c1ccc(NCc2cnc3ccccc3c2)cc1    not satisfied
O=C(O)c1cc(O)c2cc(Cc3ccccc3)ccc2n1    not satisfied

Given the entry CC(=O)NC(CCc1ccc(Cl)c(Cl)c1)c1cccc(O)c(=O)c1 (stereo not given) , would its reported Activity be below 90%?
satisfied

Follow-up item: "O=C1Nc2ccccc2/C1=N\CCc1c[nH]c2ccccc12"
not satisfied

Subsequent entry: "COC(=O)c1ccc(NCc2cc(O)c3ccccc3c2O)cc1"
satisfied

Field entry: O=C1N=C(Nc2nc3ccccc3[nH]2)OC1c1ccccc1 (stereo not given)
not satisfied

Ok, now Oc1ccc(CCC2CCC(c3ccc(O)cc3)CO2)cc1 (stereo not given)
not satisfied

###

Biological target: Polyunsaturated fatty acid 5-lipoxygenase (Homo sapiens)
Experiment: Inhibition of human recombinant 5-LOX expressed in Escherichia coli BL21(DE3) assessed as enzyme remaining activity at 10 uM using arachidonic acid as substrate preincubated with compound for 15 mins followed by substrate and CaCl2 addition measured after 10 mins by RP-HPLC analysis relative to control
Conditions: time 25.0 min
Listed next: entries and their corresponding Activity.
Your answer should be a plain number; it is taken to be in %.

Cn1c(=O)c2nc(CCCc3nc4ccccc4[nH]3)[nH]c2n(C)c1=O    98.5
O=C1Nc2ccccc2/C1=N\CCc1c[nH]c2ccccc12    69.1
CC1CCc2c(c(CC3CC(=O)NC(=O)C3)nn2-c2ccccc2)C1 (centres undefined)    91.7

Could you now consider this next molecule?
Quick check: Activity of "CC(=O)c1cccc2cc(CC(=O)c3ccccc3)c(=O)oc12" ?
105

###

Target: UniProt:P09917
Sequence (whole entry): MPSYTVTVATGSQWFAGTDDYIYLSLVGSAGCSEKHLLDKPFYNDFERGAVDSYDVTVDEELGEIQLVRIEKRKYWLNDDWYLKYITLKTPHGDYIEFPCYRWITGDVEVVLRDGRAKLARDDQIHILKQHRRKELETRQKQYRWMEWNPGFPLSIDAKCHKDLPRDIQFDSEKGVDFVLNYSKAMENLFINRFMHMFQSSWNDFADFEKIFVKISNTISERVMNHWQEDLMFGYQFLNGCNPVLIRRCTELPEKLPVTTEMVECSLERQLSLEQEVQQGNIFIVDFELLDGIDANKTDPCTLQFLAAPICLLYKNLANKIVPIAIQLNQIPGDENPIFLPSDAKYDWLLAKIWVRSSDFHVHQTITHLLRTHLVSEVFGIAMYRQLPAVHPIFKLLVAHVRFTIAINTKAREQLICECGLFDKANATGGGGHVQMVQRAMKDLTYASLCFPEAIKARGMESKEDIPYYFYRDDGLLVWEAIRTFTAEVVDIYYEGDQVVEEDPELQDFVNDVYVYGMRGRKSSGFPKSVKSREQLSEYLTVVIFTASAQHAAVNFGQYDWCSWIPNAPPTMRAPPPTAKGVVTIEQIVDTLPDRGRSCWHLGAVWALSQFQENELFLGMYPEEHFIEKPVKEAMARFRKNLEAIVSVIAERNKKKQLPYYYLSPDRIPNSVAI
Assay: Inhibition of 5-LOX in human Neutrophil at 10 uM preincubated with compound for 15 mins followed by A23187 addition measured after 10 mins by RP-HPLC analysis relative to control
Format: cell-based
Conditions: time 25.0 min
Activity calls are given as the source filed them. The calls are words filed in the database; no cut-off is given here.
observable: inhibition

Worked cases, inhibition given:
N=c1[nH]nc2nc(CC(=O)c3ccc4ccccc4c3)c(=O)[nH]n12    inactive
N=c1c2c(ncn1Cc1ccccc1)CCN(Cc1ccccc1)C2    inactive
O=C(O)c1cc(O)c2cc(Cc3ccccc3)ccc2n1    inactive
O=C1Nc2ccccc2/C1=N/NS(=O)(=O)c1ccc(C(=O)O)cc1    inactive
O=C1CCC(CCc2nc3ccccc3[nH]2)(c2ccccc2)C(=O)N1 (stereo unspecified)    inactive

I'd like to know its inhibition. The molecule in question is O=C1C(C(O)c2ccccc2)CCCC1C(O)c1ccccc1 (stereo unspecified)
inactive

###

Listed below: Activity values for each entry.
Molecular target: Polyunsaturated fatty acid 5-lipoxygenase (Homo sapiens)
Assay: Inhibition of human recombinant 5-LOX expressed in Escherichia coli BL21(DE3) assessed as enzyme remaining activity at 10 uM using arachidonic acid as substrate preincubated with compound for 15 mins followed by substrate and CaCl2 addition measured after 10 mins by RP-HPLC analysis relative to control
Details: time 25.0 min
# output: bare number, implied unit %

Examples from the recorded data:
COc1ccc(C2=C/C(=C/c3ccc(O)cc3O)C(=O)O2)cc1    84.5
Oc1nc(Cc2ccc3ccccc3n2)cc(-c2ccccc2)n1    68.1
CC(=O)c1ccc(NCN2C(=O)c3ccccc3C2=O)cc1    97.2
N=C1OC(c2c[nH]c3ccc(OCc4ccccc4)cc23)C(O)=C1O (centres undefined)    95

GET /values?readout=Activity&item= CC(=O)NC(CC(=O)Nc1cccc2c1Cc1ccccc1-2)C(=O)O (centres undefined)
107

Now this one: "O=C1c2ccccc2C(=O)N1CCc1nc(-c2ccccc2)c[nH]1"
90.4

For O=C(c1nc2ccc(Cl)cc2nc1O)C(O)c1ccc2c(c1)OCO2 (centres undefined) then?
81.2

Try this compound too: "NNC(=O)CCc1ccc2ccc3ccccc3c2c1"
75.1

Entry to check: O=C1N=C(Nc2nc3ccccc3[nH]2)OC1c1ccccc1 (centres undefined)
94.4

Same question for O=C(c1ccc2ccccc2n1)C(O)c1ccc2ccccc2n1 (centres undefined) please.
99.8

Entry to check: "CC(=O)c1cccc(NC(=O)Oc2ccc3c(C)cc(=O)oc3c2)c1"
115

Input N=C(N)/N=C(/C=C/c1ccccc1)CC1OC(=O)c2ccccc21 (centres undefined)
58.3

Also need "NS(=O)(=O)c1ccc(NCc2cnc3ccccc3c2)cc1" , thanks.
96.5

And what about the compound "O=C1Nc2ccccc2/C1=N/NS(=O)(=O)c1ccc(C(=O)O)cc1" ?
105

Similarly, "O=C(/C=C/c1ccccc1)CCc1c(O)c2ccccc2oc1=O" ?
67.6

And the next one, O=C(O)c1ccccc1C(=O)OC1CCc2ccccc2C1 (centres undefined) ?
110

Let us now turn to "COC(=O)c1ccc(NCc2cc(O)c3ccccc3c2O)cc1"
6.1

###

Target: UniProtKB P09917
Assay: Inhibition of human recombinant 5-LOX expressed in Escherichia coli BL21(DE3) using arachidonic acid as substrate preincubated with compound for 15 mins followed by substrate and CaCl2 addition measured after 10 mins by RP-HPLC analysis
pIC50: −log10 of the molar value.
observable: pIC50

Oc1ccc(CCC2CCC(c3ccc(O)cc3)CO2)cc1 (stereo not drawn)    < 5.00
COc1ccc(C2=C/C(=C/c3ccc(O)cc3O)C(=O)O2)cc1    < 5.00

// pIC50 lookup, key: "COC(=O)c1ccc(NCc2cc(O)c3ccccc3c2O)cc1"
5.96

###

Biological target: Polyunsaturated fatty acid 5-lipoxygenase (Homo sapiens)
Assay: Inhibition of 5-LOX in human Neutrophil at 10 uM using arachidonic acid as substrate preincubated with compound for 15 mins followed by substrate and A23187 addition measured after 10 mins by RP-HPLC analysis relative to control
Type: cell-based
Conditions: time 25.0 min
Active and inactive are the calls of the source. No cut-off for these calls is given here.
observable: inhibition

Here's what some known entries look like.
Oc1nc(Cc2ccc3ccccc3n2)cc(-c2ccccc2)n1    inactive
N=C1OC(c2c[nH]c3ccc(OCc4ccccc4)cc23)C(O)=C1O (centres undefined)    inactive
O=C1NC(=O)C(CCC(=O)c2ccc3ccccc3c2)C(=O)N1    inactive
Oc1ccc(CCC2CCC(c3ccc(O)cc3)CO2)cc1 (centres undefined)    > 50%
CC(=O)NC(CCc1ccc(Cl)c(Cl)c1)c1cccc(O)c(=O)c1 (centres undefined)    > 50%

Form field: reported inhibition of "COc1ccc(C2=C/C(=C/c3ccc(O)cc3O)C(=O)O2)cc1"
> 50%

And what about the compound "COC(=O)c1ccc(NCc2cc(O)c3ccccc3c2O)cc1" ?
> 50%

What would you report for Nc1nc(N)c2cc([S+]([O-])c3ccc4ccccc4c3)ccc2n1 (centres undefined) ?
inactive
